Origin of values: ChEMBL document CHEMBL5143732

# experiment description: Hemolytic activity in human RBC measured after 1 hr
# Assay type: toxicity, cell-based, Erythrocyte
# condition set: red blood cells (erythrocytes)
quantity: HC50 at 1 h

Kindly indicate its recorded HC50 at 1 h. Item: "CNCC(=O)N[C@@H]1[C@H](O)[C@H](O[C@H]2/C=C/C=C/C=C/C=C/C=C/C=C/C=C/[C@H](C)[C@@H](O)[C@@H](C)[C@H](C)OC(=O)C[C@H](O)C[C@H](O)CC[C@@H](O)[C@H](O)C[C@H](O)C[C@]3(O)C[C@H](O)[C@@H](C(=O)NCCN)[C@H](C2)O3)O[C@H](C)[C@H]1O"
105 µM

State, in one line, measured HC50 at 1 h of "CCOC(=O)NNC(=O)[C@H]1[C@@H]2C[C@@H](O[C@@H]3O[C@H](C)[C@@H](O)[C@H](N)[C@@H]3O)/C=C/C=C/C=C/C=C/C=C/C=C/C=C/[C@H](C)[C@@H](O)[C@@H](C)[C@H](C)OC(=O)C[C@H](O)C[C@H](O)CC[C@@H](O)[C@H](O)C[C@H](O)C[C@](O)(C[C@@H]1O)O2"
6.29 µM

Write down HC50 at 1 h measured for item "CNCC(=O)N[C@@H]1[C@H](O)[C@H](O[C@H]2/C=C/C=C/C=C/C=C/C=C/C=C/C=C/[C@H](C)[C@@H](O)[C@@H](C)[C@H](C)OC(=O)C[C@H](O)C[C@H](O)CC[C@@H](O)[C@H](O)C[C@H](O)C[C@]3(O)C[C@H](O)[C@@H](C(=O)NCCO)[C@H](C2)O3)O[C@H](C)[C@H]1O"
1.79 µM

Tell me measured HC50 at 1 h for "C[C@@H]1[C@H](O)[C@@H](C)/C=C/C=C/C=C/C=C/C=C/C=C/C=C/[C@H](O[C@@H]2O[C@H](C)[C@@H](O)[C@H](NC(=O)CN)[C@@H]2O)C[C@@H]2O[C@](O)(C[C@@H](O)C[C@@H](O)[C@H](O)CC[C@@H](O)C[C@@H](O)CC(=O)O[C@H]1C)C[C@H](O)[C@H]2C(=O)NCCCO" please.
7.86 µM

---

# System: Pichia kudriavzevii
# experiment description: Antifungal activity against Candida krusei ATCC 6258 assessed as inhibition of fungal growth measured after 48 hrs by CLSI based agar dilution method
# Assay type: functional
quantity: MIC (µg/mL)
The answer is to be given in µg/mL; state only the numeric part.

Name the recorded MIC of the compound listed here: "C[C@@H]1[C@H](O)[C@@H](C)/C=C/C=C/C=C/C=C/C=C/C=C/C=C/[C@H](O[C@@H]2O[C@H](C)[C@@H](O)[C@H](N)[C@@H]2O)C[C@@H]2O[C@](O)(C[C@@H](O)C[C@@H](O)[C@H](O)CC[C@@H](O)C[C@@H](O)CC(=O)O[C@H]1C)C[C@H](O)[C@H]2C(=O)NNC(=O)c1ccccc1"
2

Quick one: give measured MIC for "CNCC(=O)N[C@@H]1[C@H](O)[C@H](O[C@H]2/C=C/C=C/C=C/C=C/C=C/C=C/C=C/[C@H](C)[C@@H](O)[C@@H](C)[C@H](C)OC(=O)C[C@H](O)C[C@H](O)CC[C@@H](O)[C@H](O)C[C@H](O)C[C@]3(O)C[C@H](O)[C@@H](C(=O)NCCN(C)C)[C@H](C2)O3)O[C@H](C)[C@H]1O"
16

Look up and state reported MIC for CNCC(=O)N[C@@H]1[C@H](O)[C@H](O[C@H]2/C=C/C=C/C=C/C=C/C=C/C=C/C=C/[C@H](C)[C@@H](O)[C@@H](C)[C@H](C)OC(=O)C[C@H](O)C[C@H](O)CC[C@@H](O)[C@H](O)C[C@H](O)C[C@]3(O)C[C@H](O)[C@@H](C(=O)N4CCN(CC(O)CO)CC4)[C@H](C2)O3)O[C@H](C)[C@H]1O (stereo partly drawn)
2

---

# experiment description: Hemolytic activity in human RBC measured after 1 hr
# Assay type: toxicity, cell-based, Erythrocyte
# condition set: red blood cells (erythrocytes)
I'd appreciate it if you could supply HC50 at 1 h values for the items below.

Return the recorded HC50 at 1 h value; entry: "CNCC(=O)N[C@@H]1[C@H](O)[C@H](O[C@H]2/C=C/C=C/C=C/C=C/C=C/C=C/C=C/[C@H](C)[C@@H](O)[C@@H](C)[C@H](C)OC(=O)C[C@H](O)C[C@H](O)CC[C@@H](O)[C@H](O)C[C@H](O)C[C@]3(O)C[C@H](O)[C@@H](C(=O)N(C)CCO)[C@H](C2)O3)O[C@H](C)[C@H]1O"
14.8 µM

Give reported HC50 at 1 h value for "COC(=O)NNC(=O)[C@H]1[C@@H]2C[C@@H](O[C@@H]3O[C@H](C)[C@@H](O)[C@H](NC(=O)CN)[C@@H]3O)/C=C/C=C/C=C/C=C/C=C/C=C/C=C/[C@H](C)[C@@H](O)[C@@H](C)[C@H](C)OC(=O)C[C@H](O)C[C@H](O)CC[C@@H](O)[C@H](O)C[C@H](O)C[C@](O)(C[C@@H]1O)O2"
8.84 µM

Complete the entry with HC50 at 1 h for "CNCC(=O)N[C@@H]1[C@H](O)[C@H](O[C@H]2/C=C/C=C/C=C/C=C/C=C/C=C/C=C/[C@H](C)[C@@H](O)[C@@H](C)[C@H](C)OC(=O)C[C@H](O)C[C@H](O)CC[C@@H](O)[C@H](O)C[C@H](O)C[C@]3(O)C[C@H](O)[C@@H](C(=O)NCCCO)[C@H](C2)O3)O[C@H](C)[C@H]1O"
6.24 µM

---

# System: Pichia kudriavzevii
# experiment description: Antifungal activity against Candida krusei ATCC 6258 assessed as inhibition of fungal growth measured after 48 hrs by CLSI based agar dilution method
# Type: functional
quantity: MIC (µg/mL)
Give the quantity in µg/mL, number only.

Read off the recorded MIC for "COC(=O)NNC(=O)[C@H]1[C@@H]2C[C@@H](O[C@@H]3O[C@H](C)[C@@H](O)[C@H](NC(=O)CCN)[C@@H]3O)/C=C/C=C/C=C/C=C/C=C/C=C/C=C/[C@H](C)[C@@H](O)[C@@H](C)[C@H](C)OC(=O)C[C@H](O)C[C@H](O)CC[C@@H](O)[C@H](O)C[C@H](O)C[C@](O)(C[C@@H]1O)O2"
8

Report MIC for "CNCC(=O)N[C@@H]1[C@H](O)[C@H](O[C@H]2/C=C/C=C/C=C/C=C/C=C/C=C/C=C/[C@H](C)[C@@H](O)[C@@H](C)[C@H](C)OC(=O)C[C@H](O)C[C@H](O)CC[C@@H](O)[C@H](O)C[C@H](O)C[C@]3(O)C[C@H](O)[C@@H](C(=O)N4CCN(C(C)=O)CC4)[C@H](C2)O3)O[C@H](C)[C@H]1O"
8

Please report the measured MIC for "CNCC(=O)N[C@@H]1[C@H](O)[C@H](O[C@H]2/C=C/C=C/C=C/C=C/C=C/C=C/C=C/[C@H](C)[C@@H](O)[C@@H](C)[C@H](C)OC(=O)C[C@H](O)C[C@H](O)CC[C@@H](O)[C@H](O)C[C@H](O)C[C@]3(O)C[C@H](O)[C@@H](C(=O)NCCCO)[C@H](C2)O3)O[C@H](C)[C@H]1O"
0.25

---

# experiment description: AUClast in ICR (CD-1) mouse at 1 mg/kg, iv measured upto 24 hrs
# Type: ADME, organism-based
# Design: dose 1 mg/kg, time < 24 hrs, route iv
# condition set: ICR (CD-1), in vivo
quantity: AUC(0-t) at 24 h (ng·h/mL)
Respond numerically; units are ng·h/mL and should not be typed.

State its AUC(0-t) at 24 h for this compound: "C[C@@H]1[C@H](O)[C@@H](C)/C=C/C=C/C=C/C=C/C=C/C=C/C=C/[C@H](O[C@@H]2O[C@H](C)[C@@H](O)[C@H](NC(=O)CCN)[C@@H]2O)C[C@@H]2O[C@](O)(C[C@@H](O)C[C@@H](O)[C@H](O)CC[C@@H](O)C[C@@H](O)CC(=O)O[C@H]1C)C[C@H](O)[C@H]2C(=O)N1CCN(CCO)CC1"
4890

Fill in AUC(0-t) at 24 h for record "CNCC(=O)N[C@@H]1[C@H](O)[C@H](O[C@H]2/C=C/C=C/C=C/C=C/C=C/C=C/C=C/[C@H](C)[C@@H](O)[C@@H](C)[C@H](C)OC(=O)C[C@H](O)C[C@H](O)CC[C@@H](O)[C@H](O)C[C@H](O)C[C@]3(O)C[C@H](O)[C@@H](C(=O)NCCN)[C@H](C2)O3)O[C@H](C)[C@H]1O"
17600

In one line, give reported AUC(0-t) at 24 h of the entry "CNCC(=O)N[C@@H]1[C@H](O)[C@H](O[C@H]2/C=C/C=C/C=C/C=C/C=C/C=C/C=C/[C@H](C)[C@@H](O)[C@@H](C)[C@H](C)OC(=O)C[C@H](O)C[C@H](O)CC[C@@H](O)[C@H](O)C[C@H](O)C[C@]3(O)C[C@H](O)[C@@H](C(=O)N4CCN(C(C)(C)CO)CC4)[C@H](C2)O3)O[C@H](C)[C@H]1O" .
10700

Quote AUC(0-t) at 24 h reported for "C[C@@H]1[C@H](O)[C@@H](C)/C=C/C=C/C=C/C=C/C=C/C=C/C=C/[C@H](O[C@@H]2O[C@H](C)[C@@H](O)[C@H](N)[C@@H]2O)C[C@@H]2O[C@](O)(C[C@@H](O)C[C@@H](O)[C@H](O)CC[C@@H](O)C[C@@H](O)CC(=O)O[C@H]1C)C[C@H](O)[C@H]2C(=O)NCCN" please.
11600

Item "C[C@@H]1[C@H](O)[C@@H](C)/C=C/C=C/C=C/C=C/C=C/C=C/C=C/[C@H](O[C@@H]2O[C@H](C)[C@@H](O)[C@H](NC(=O)CN)[C@@H]2O)C[C@@H]2O[C@](O)(C[C@@H](O)C[C@@H](O)[C@H](O)CC[C@@H](O)C[C@@H](O)CC(=O)O[C@H]1C)C[C@H](O)[C@H]2C(=O)NCCN" : provide AUC(0-t) at 24 h
11500

Check the records and state AUC(0-t) at 24 h for "C[C@@H]1[C@H](O)[C@@H](C)/C=C/C=C/C=C/C=C/C=C/C=C/C=C/[C@H](O[C@@H]2O[C@H](C)[C@@H](O)[C@H](NC(=O)CN)[C@@H]2O)C[C@@H]2O[C@](O)(C[C@@H](O)C[C@@H](O)[C@H](O)CC[C@@H](O)C[C@@H](O)CC(=O)O[C@H]1C)C[C@H](O)[C@H]2C(=O)N1CCN(CCO)CC1"
3060
